Reference for the values: patent US12559496B2

# Test system: IL-17A-induced G-CSF production in human normal keratinocytes (NHK)
# Procedure Details: NHK Assay: IL-17A-induced G-CSF production in human normal keratinocytes
# Type: cell-based
# Experimental Parameters: IL-17A 5 ng/mL, 24 h, 5% FBS, simple average if tested more than once
Response field label: string, one of yes (IC50 strictly below 1 µM) or no.

Molecule	Group
O=C(CC1CC1(F)F)N[C@@H](c1ccn2cc([C@@H](NC(=O)c3conc3C(F)(F)F)C3CCC(F)(F)CC3)nc2n1)C1CC1 (single isomer, unassigned) [Example 57]	yes
O=C(CCC(F)(F)F)NC(c1ccn2cc([C@@H](NC(=O)c3cnnn3CCC(F)(F)F)C3CCC(F)(F)CC3)nc2n1)C1CC1 (single isomer, unassigned) [Example 1]	yes
CC(CC(=O)N[C@H](c1ccn2cc([C@@H](NC(=O)c3conc3CCC(F)(F)F)C3CCC(F)(F)CC3)nc2n1)C1CC1)C(F)(F)F (single isomer, unassigned) [Example 8]	no
CC(C)n1ncnc1C(=O)N[C@H](c1cn2ccc([C@H](NC(=O)CC(C)C(F)(F)F)C3CC3)nc2n1)C1CCC(F)(F)CC1 (single isomer, unassigned) [Example 18]	no
O=C(CCC(F)(F)F)NC(c1ccn2cc([C@@H](NC(=O)c3cnn(CCC(F)(F)F)n3)C3CCC(F)(F)CC3)nc2n1)C1CC1 (single isomer, unassigned) [Example 40]	yes
Cc1nonc1C(=O)N[C@H](c1cn2ccc([C@H](NC(=O)CC3CC3(F)F)C3CC3)nc2n1)C1CCC(F)(F)CC1 (single isomer, unassigned) [Example 52]	no
CC(CC(=O)N[C@@H](c1ccn2cc([C@@H](NC(=O)c3ncnn3CC3CC3)C3CCC(F)(F)CC3)nc2n1)C1CC1)C(F)(F)F (single isomer, unassigned) [Example 19]	no
CC(CC(=O)N[C@H](c1ccn2cc([C@@H](NC(=O)c3ccnc(CC(F)(F)F)c3)C3CCC(F)(F)CC3)nc2n1)C1CC1)C(F)(F)F (single isomer, unassigned) [Example 4]	no
O=C(CC1CC1(F)F)N[C@@H](c1ccn2cc([C@@H](NC(=O)c3ncnn3CC3CC3)C3CCC(F)(F)CC3)nc2n1)C1CC1 (single isomer, unassigned) [Example 56]	no

Query: Record CC(C)n1nccc1C(=O)N[C@H](c1cn2ccc(C(NC(=O)CCC(F)(F)F)C3CC3)nc2n1)C1CCC(F)(F)CC1 (single isomer, unassigned) [Example 46] : is its IC50 strictly below 1 µM?
Response: no

###

Catalogue of pIC50 values
# System Tested: IL-17A(FLAG-Tagged): IL-17RA(His-Tagged) (Homo sapiens, UniProt Q16552, K93Q)
# Sequence (Q16552 with tags, fused parts or gaps K93Q): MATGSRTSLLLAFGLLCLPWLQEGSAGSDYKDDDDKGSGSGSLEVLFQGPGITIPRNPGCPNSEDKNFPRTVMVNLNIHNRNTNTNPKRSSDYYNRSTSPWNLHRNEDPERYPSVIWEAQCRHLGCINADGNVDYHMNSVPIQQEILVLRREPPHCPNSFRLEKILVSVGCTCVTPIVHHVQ
# Procedure Details: IL-17A(FLAG-Tagged): IL-17RA(His-Tagged) Binding Disruption Eu-HTRF Assay
# Experimental Parameters: disruption of IL-17A/IL-17RA binding; simple average if tested more than once
pIC50 here is simply -log10 of the concentration when that concentration is written in mol/L.

Please review the following examples before continuing.
Compound	Numeric Value
O=C(CCC(F)(F)F)N[C@H](c1ccn2cc([C@@H](NC(=O)c3ncnn3CC3CC3)C3CCC(F)(F)CC3)nc2n1)C1CC1	5.06
O=C(CC1CC1(F)F)N[C@@H](c1ccn2cc([C@@H](NC(=O)c3conc3C(F)(F)F)C3CCC(F)(F)CC3)nc2n1)C1CC1 (single isomer, unassigned) [Example 57]	6.66

Kindly consider the entry below.
Query: Find pIC50 for O=C(CC1CC1(F)F)N[C@@H](c1ccn2cc([C@@H](NC(=O)c3ncnn3CC3CC3)C3CCC(F)(F)CC3)nc2n1)C1CC1 (single isomer, unassigned) [Example 55] on IL-17A(FLAG-Tagged): IL-17RA(His-Tagged) (Homo sapiens, UniProt Q16552, K93Q) and write it down.
Response: 6.24

###

Catalogue of IC50 values
# Tested on: IL-17A-induced G-CSF production in human normal keratinocytes (NHK)
# Procedure Details: NHK Assay: IL-17A-induced G-CSF production in human normal keratinocytes
# Format: cell-based
# Experimental Parameters: IL-17A 5 ng/mL, 24 h, 5% FBS, simple average if tested more than once
Quick note: give the figure in µM, leave out the unit.

Please review the following examples before continuing.
Compound	IC50 / µM
CC(CC(=O)N[C@H](c1ccn2cc([C@@H](NC(=O)c3conc3C3CC3)C3CCC(F)(F)CC3)nc2n1)C1CC1)C(F)(F)F (single isomer, unassigned) [Example 9]	0.61
Cn1nccc1C(=O)N[C@H](c1cn2ccc(C(NC(=O)CCC(F)(F)F)C3CC3)nc2n1)C1CCC(F)(F)CC1 (single isomer, unassigned) [Example 44]	0.17
O=C(CCC(F)(F)F)NC(c1ccn2cc([C@@H](NC(=O)c3cnnn3CCC(F)(F)F)C3CCC(F)(F)CC3)nc2n1)C1CC1 (single isomer, unassigned) [Example 2]	6.2

Kindly consider the entry below.
Query: State its IC50 for this compound: CC(CC(=O)N[C@H](c1ccn2cc([C@@H](NC(=O)c3conc3C3CC3)C3CCC(F)(F)CC3)nc2n1)C1CC1)C(F)(F)F (single isomer, unassigned) [Example 10]
Response: 5.8

###

# Tested on: IL-17A-induced G-CSF production in human normal keratinocytes (NHK)
# Procedure Details: NHK Assay: IL-17A-induced G-CSF production in human normal keratinocytes
# Assay type: cell-based
# Experimental Parameters: IL-17A 5 ng/mL, 24 h, 5% FBS, simple average if tested more than once
Catalogue of IC50 values
Quick note: give the figure in nM, leave out the unit.

Please review the following examples before continuing.
Molecule	IC50 [nM]
O=C(CC1CC1(F)F)N[C@@H](c1ccn2cc([C@@H](NC(=O)c3conc3C(F)(F)F)C3CCC(F)(F)CC3)nc2n1)C1CC1 (single isomer, unassigned) [Example 58]	2200
O=C(CCC(F)(F)F)NC(c1ccn2cc([C@@H](NC(=O)c3ccn(CCC(F)(F)F)n3)C3CCC(F)(F)CC3)nc2n1)C1CC1 (single isomer, unassigned) [Example 42]	520

Kindly consider the entry below.
Query: Find IC50 for Cc1conc1C(=O)N[C@H](c1cn2ccc([C@H](NC(=O)CC3CC3(F)F)C3CC3)nc2n1)C1CCC(F)(F)CC1 (single isomer, unassigned) [Example 54] on IL-17A-induced G-CSF production in human normal keratinocytes (NHK) and write it down.
Response: 4500

###

Catalogue of pIC50 values
# System Tested: IL-17A(FLAG-Tagged): IL-17RA(His-Tagged) (Homo sapiens, UniProt Q16552, K93Q)
# Procedure Details: IL-17A(FLAG-Tagged): IL-17RA(His-Tagged) Binding Disruption Eu-HTRF Assay
# Experimental Parameters: disruption of IL-17A/IL-17RA binding; simple average if tested more than once
pIC50 here is simply -log10 of the concentration when that concentration is written in mol/L.

Please review the following examples before continuing.
Molecule	pIC50
Cc1nonc1C(=O)N[C@H](c1cn2ccc([C@H](NC(=O)CC3CC3(F)F)C3CC3)nc2n1)C1CCC(F)(F)CC1 (single isomer, unassigned) [Example 52]	6.17
Cc1c(C(=O)N[C@H](c2cn3ccc(C(NC(=O)CCC(F)(F)F)C4CC4)nc3n2)C2CCC(F)(F)CC2)cnn1CCC(F)(F)F (single isomer, unassigned) [Example 38]	6.05
O=C(CC1CC1(F)F)N[C@@H](c1ccn2cc([C@@H](NC(=O)c3ncnn3CC3CC3)C3CCC(F)(F)CC3)nc2n1)C1CC1 (single isomer, unassigned) [Example 56]	6.14
Cn1nccc1C(=O)N[C@H](c1cn2ccc(C(NC(=O)CCC(F)(F)F)C3CC3)nc2n1)C1CCC(F)(F)CC1 (single isomer, unassigned) [Example 45]	5.54
O=C(CCC(F)(F)F)NC(c1ccn2cc([C@@H](NC(=O)c3cnnn3CCC(F)(F)F)C3CCC(F)(F)CC3)nc2n1)C1CC1 (single isomer, unassigned) [Example 1]	6.54

Query: State its pIC50 for this molecule: O=C(CCC(F)(F)F)N[C@H](c1ccn2cc([C@@H](NC(=O)c3cnn(CC4CC4)n3)C3CCC(F)(F)CC3)nc2n1)C1CC1 [Example 31]
Response: 5.52

Query: State its pIC50 for this molecule: O=C(CC1CC(F)(F)C1)N[C@@H](c1ccn2cc([C@@H](NC(=O)[C@H]3C[C@@H]3C(F)(F)F)C3CCC(F)(F)CC3)nc2n1)C1CC1 (relative stereo) [Example 12]
Response: 5.22

Query: State its pIC50 for this molecule: O=C(CCC(F)(F)F)N[C@@H](c1ccn2cc([C@@H](NC(=O)c3cnn(CC4CC4)n3)C3CCC(F)(F)CC3)nc2n1)C1CC1 [Example 34]
Response: 6.62

Query: State its pIC50 for this molecule: O=C(CCC(F)(F)F)N[C@@H](c1ccn2cc([C@@H](NC(=O)c3conc3C3CC3)C3CCC(F)(F)CC3)nc2n1)C1CC1 [Example 36]
Response: 6.66

Query: State its pIC50 for this molecule: O=C(CCC(F)(F)F)N[C@@H](c1ccn2cc([C@@H](NC(=O)c3conc3CCC(F)(F)F)C3CCC(F)(F)CC3)nc2n1)C1CC1 [Example 30]
Response: 6.96

Query: State its pIC50 for this molecule: CC(CC(=O)N[C@@H](c1ccn2cc([C@@H](NC(=O)c3ncnn3CC3CC3)C3CCC(F)(F)CC3)nc2n1)C1CC1)C(F)(F)F (single isomer, unassigned) [Example 20]
Response: 6.33
